meta.source: patent US12459951B2

tested on: KRas wild type; experiment: Ras GTP Binding Domain Inhibition Assay (Ras Superfamily Assay); details: 20 μM compound, without SOS
ENDPOINT_LABEL: KRas wild type: % inh.

INSERT INTO measurements (substance_smiles, target_of_assay, val) VALUES
  ('COc1ncc(Nc2nc(-c3nccn3C)nn3cc(-c4ccn(C(C)C)n4)c(C)c23)cn1', 'KRas wild type', 'A (A = 1-25% inhibition)'),
  ('COCCNc1nc(-c2nccn2C)nn2cc(-c3cccc(OC)c3Cl)c(-c3ccccc3)c12', 'KRas wild type', 'A (A = 1-25% inhibition)'),
  ('COc1cccc(Nc2nc(-c3nccn3C)nn3cc(-c4ccn(C(C)C)n4)c(-c4ccccc4)c23)n1', 'KRas wild type', '0 (0 = 0% inhibition)'),
  ('Cc1c(-c2ccn(C(C)C)n2)cn2nc(-c3nccn3C)nc(Nc3cc(C4CC4)no3)c12', 'KRas wild type', 'A (A = 1-25% inhibition)'),
  ('COc1cccc(-c2cn3nc(-c4nccn4C)nc(N[C@H]4C[C@H](OC)C4)c3c2-c2ccccc2)c1Cl', 'KRas wild type', 'A (A = 1-25% inhibition)');
